experiment: physchem; assay type: physicochemical; settings: buffer or solvent, pH 7
MEASURED ATTRIBUTE: remaining at 480 h, 100 μg/ml

H-HSDAVFTANYTRLRRQLAVRRYLAAILGRR-NH2 [Peptide 23]	42%
H-HSDAVFTDNYTRLRRQLAVRRYLNSILNGRR-NH2 [Peptide 4, reference compound]	0%
H-HSDAVFTDNYTRLRRQLAVRRYLAAILGRR-NH2 [Peptide 12]	34%
H-HSDAVFTENYTRLRRQLAVRRYLAAILGRR-NH2 [Peptide 21]	45%

* * *

Here, each record is paired with measured remaining at 72 h, 10 μg/ml data.
test: physchem; type: physicochemical; conditions: buffer or solvent, pH 7
MEASURED ATTRIBUTE: remaining at 72 h, 10 μg/ml (%)

H-HSDAVFTDNYTRLRRQLAVRRYLAAILGRR-NH2 [Peptide 12]	100
H-HSDAVFTENYTRLRRQLAVRRYLAAILGRR-NH2 [Peptide 21]	100
H-HSDAVFTDNYTRLRRQLAVRRYLNSILNGRR-NH2 [Peptide 4, reference compound]	67

* * *

assay: physchem; assay type: physicochemical; conditions: buffer, pH 7
MEASURED ATTRIBUTE: remaining at 240 h, 100 μg/ml (%)

H-HSDAVFTDNYTRLRRQLAVRRYLAAILGRR-NH2 [Peptide 12]	84
H-HSDAVFTENYTRLRRQLAVRRYLAAILGRR-NH2 [Peptide 21]	100
H-HSDAVFTDNYTRLRRQLAVRRYLNSILNGRR-NH2 [Peptide 4, reference compound]	28
H-HSDAVFTANYTRLRRQLAVRRYLAAILGRR-NH2 [Peptide 23]	98

* * *

assay: physchem; type: physicochemical; conditions: buffer or solvent, pH 7
MEASURED ATTRIBUTE: remaining at 240 h, 100 μg/ml (%)

H-HSDAVFTANYTRLRRQLAVRRYLAAILGRR-NH2 [Peptide 23]	62
H-HSDAVFTDNYTRLRRQLAVRRYLAAILGRR-NH2 [Peptide 12]	49
H-HSDAVFTENYTRLRRQLAVRRYLAAILGRR-NH2 [Peptide 21]	29
H-HSDAVFTDNYTRLRRQLAVRRYLNSILNGRR-NH2 [Peptide 4, reference compound]	0

* * *

experiment: Stability of peptide 4 in distilled water, 40° C., 24 hours (reverse phase HPLC); assay type: physicochemical; conditions: pH 4.0, distilled water, 10 μg/ml, 40° C., read-out: Amount of remaining peptide
MEASURED ATTRIBUTE: remaining at 24 h, 10 μg/ml (%)

H-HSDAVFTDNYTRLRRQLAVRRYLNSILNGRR-NH2 [Peptide 4, reference compound]	91
